- Tested on: HepG2 viability, CellTiter-Glo ATP luminescence, 72 h
- experiment-description: viability loss in human hepatoma cells – cell-based, CellTiter-Glo luminescence, cherry-pick, set 2, cytotoxicity control, dose response (AID 743395)
parameter-measured: AC35

>>> print(df.to_string())
                                   compound                            assayed_system  parameter_measured   result
0      CC1=C/C(=C\C=C(C#N)C#N)N(C)c2ccccc21  HepG2 viability, CellTiter-Glo ATP luminescence, 72 h                AC35  21.3 µM
1  COC(=O)c1ccc(/C=C/c2c(-c3ccc(OC)cc3)oc3ccc(N4CCOCC4)cc23)cc1  HepG2 viability, CellTiter-Glo ATP luminescence, 72 h                AC35    16 µM
2  CCc1cc(-c2nnn(CCC3COCCO3)c2CC)ccc1-c1cn(Cc2ccc3ccccc3c2)nn1 (stereo unspecified)  HepG2 viability, CellTiter-Glo ATP luminescence, 72 h                AC35  15.8 µM
3       C=C1SC(Nc2c(C)cc(C)cc2C)=NC12CCCCC2  HepG2 viability, CellTiter-Glo ATP luminescence, 72 h                AC35  17.2 µM
4  CC1(Cc2ccc(F)cc2)C(=O)Nc2c(Cl)ccc(Cl)c21 (stereo unspecified)  HepG2 viability, CellTiter-Glo ATP luminescence, 72 h                AC35    12 µM

Prompt: Give HepG2 viability, CellTiter-Glo ATP luminescence, 72 h AC35 for Cc1ccccc1S(=O)(=O)N1C[C@@H]2N[C@H](C1)C2c1ccc(-c2cccc(C#N)c2)cc1 (stereo partly specified)
Completion: 9.94 µM

Prompt: Now try COc1ccccc1N=C1SC(C(=O)Nc2cccc(Cl)c2Cl)C(N)=C1C(N)=O (stereo unspecified) .
Completion: 18.4 µM

Prompt: Try this compound too: `Cc1cc2[nH]c3c(c[n+](C)c4ccccc34)c2cc1C`
Completion: 2.58 µM

Prompt: Follow-up item: `O=C(N=Nc1c(O)[nH]c2ccc(Br)cc12)c1ccccc1-n1cccc1`
Completion: 13.1 µM

Prompt: Try this compound too: `COc1cc(OC)cc(C(=O)c2c(C)c(C#N)c3ccccn23)c1`
Completion: 9.29 µM

* * *

- System: HepG2 viability, CellTiter-Glo ATP luminescence, 72 h
- experiment-description: viability loss in human hepatoma cells – cell-based, CellTiter-Glo luminescence, cherry-pick, set 2, cytotoxicity control, dose response (AID 743395)
parameter-measured: AC35

As a guide, the following entries are already answered.
                                   compound   result
0  COc1ccc2[nH]c(C(=O)N/N=C/c3ccc(O)cc3O)cc2c1  3.37 µM
1  Brc1ccc2c(c1)C(C1=NCCN1)c1ccccc1CS2 (stereo unspecified)  18.3 µM
2  CC(C)(C)c1ccc(OCC(=O)Nc2ccc3c4c(cccc24)C(=O)NC3=O)cc1  18.5 µM
3  COC(=O)CSC1=C(C#N)C(c2ccc(C)o2)CC(=O)N1 (stereo unspecified)  19.1 µM
4  CCN(CC)CCCNc1nc2ccccc2c2[nH]c3ccc(OC)cc3c12  2.39 µM

Prompt: Quick check: AC35 on HepG2 viability, CellTiter-Glo ATP luminescence, 72 h, item CCCCC(=NCCc1c(C)[nH]c2ccc(OC)cc12)C1=C(O)CC(c2ccccc2)CC1=O (stereo unspecified) ?
Completion: 8.11 µM

* * *

Below, each entry is listed with its recorded AC35.
- Test system: HepG2 viability, CellTiter-Glo ATP luminescence, 72 h
- experiment-description: viability loss in human hepatoma cells – cell-based, CellTiter-Glo luminescence, cherry-pick, set 2, cytotoxicity control, dose response (AID 743395)

Prompt: Give its AC35 value. Item: `CC(=O)c1cccc(Nc2c3c(nc4ccccc24)CCC3)c1`
Completion: 17.9 µM

Prompt: Follow-up entry: `Cc1cc(NCc2ccccn2)n2ncc(-c3ccccc3)c2n1`
Completion: 7.75 µM

Prompt: One more compound: `COc1cc2c(c(Br)c1N)-c1cc(Br)c(N)cc1C2=O`
Completion: 0.431 µM

Prompt: # iterate: `Cc1ccc2c(c1)CCCN2C(=O)CCc1nc2ccccc2c(=O)[nH]1`
Completion: 7.93 µM

Prompt: Further, for `CC(C)Nc1ccc(Nc2ccnc3cc4ccccc4cc23)cc1` ?
Completion: 2.44 µM

Prompt: And `Cc1ccnc2c1ccc1cccnc12` ?
Completion: 2.98 µM

Prompt: // next record CC1(C(=O)NCc2ccco2)Cc2c(-c3ccc4c(c3)OCO4)ccnc2O1 (stereo unspecified)
Completion: 9.85 µM

Prompt: Consider next the compound `O=C1c2cccc(NCCCNCCO)c2C(=O)c2cccc(NCCCNCCO)c21` in the same way.
Completion: 3.61 µM

* * *

- Test system: HepG2 viability, CellTiter-Glo ATP luminescence, 72 h
- experiment-description: viability loss in human hepatoma cells – cell-based, CellTiter-Glo luminescence, cherry-pick, set 2, cytotoxicity control, dose response (AID 743395)
Attribute: AC35

Use these answered entries as a reference point.
                                   compound   result
0  Cc1ccc(S(=O)(=O)N2CCCCC2CCNC(=O)C(=O)NCc2ccccc2)cc1 (stereo not given)  12.5 µM
1  COc1ccc(OC)c(-c2cc(-c3cccnc3)nc(N)c2C#N)c1  10.6 µM
2  COc1ccc([C@H]2CC(=O)C=C(c3ccc(OC)cc3OC)C2)cc1  7.54 µM
3  C[C@H]1CN([C@@H](C)CO)C(=O)Cc2cc(NC(=O)Nc3ccc(C(F)(F)F)cc3)ccc2O[C@H]1CN(C)S(=O)(=O)c1ccccc1  10.1 µM

Now look at this one.
Prompt: Any idea what AC35 was measured for `CCN(CC)CCCNc1ccc2ncn3c4ccc(O)cc4c(=O)c1c23` ?
Completion: 1.03 µM

* * *

Attribute: AC35
- System: HepG2 viability, CellTiter-Glo ATP luminescence, 72 h
- experiment-description: viability loss in human hepatoma cells – cell-based, CellTiter-Glo luminescence, cherry-pick, set 2, cytotoxicity control, dose response (AID 743395)

Example cases with answers are listed next.
                                   compound   result
0  Cc1nn(S(=O)(=O)c2ccc(Cl)cc2)c(C)c1Sc1ccc([N+](=O)[O-])cc1  21.8 µM
1  Cc1ccc(CNC(=O)c2ccc3c(=O)c(O)c(-c4ccc(C)cc4)[nH]c3c2)cc1   1.9 µM
2  COc1ccc(C2CC(c3cccc(Br)c3)=NN2c2ccc(S(N)(=O)=O)cc2)cc1 (stereo unspecified)  18.1 µM

Prompt: # lookup: AC35 of `Cc1cc(/C=N/n2c(COc3ccccc3C)nc3ccccc3c2=O)c(O)c([N+](=O)[O-])c1`
Completion: 8.05 µM

Prompt: Entry `COc1ccc(/C=N/NC(=S)Nc2ccccc2[N+](=O)[O-])cc1O` please
Completion: 14.4 µM

Prompt: Now this one: `CC(=O)Oc1ccc(N2C(=O)c3cccc4c([N+](=O)[O-])ccc(c34)C2=O)cc1`
Completion: 16.7 µM

Prompt: Now give it for `CCN1CCN(c2cc(C)c3cc(NC(=O)c4ccc(OC)c(OC)c4)ccc3n2)CC1` too.
Completion: 12.4 µM

Prompt: Same thing, different compound: `COc1ccc(CCNc2c3ccccc3nc3ccccc23)cc1OC`
Completion: 6.93 µM

Prompt: Same again, this time with `O=C(Nc1nc(-c2ccccn2)cs1)c1ccc(F)c(S(=O)(=O)N2CCOCC2)c1`
Completion: 11.3 µM

Prompt: Input `COc1cc2c(-c3ccccc3)c(C)oc2cc1/C=N/NC(N)=S`
Completion: 6.29 µM

Prompt: Moving on to the next compound: CC(=O)Nc1cccc(-c2ccnc3c2CC(C)(C(=O)Nc2ccc4c(c2)OCO4)O3)c1 (stereo unspecified)
Completion: 17.4 µM

Prompt: Input `CCc1nc(N)nc(N)c1-c1ccc(Cl)c([N+](=O)[O-])c1`
Completion: 0.276 µM

Prompt: Continue with `O=C(Cc1ccccc1)N1CC(=O)N2[C@H](CO)[C@@H](c3ccc(-c4ccccc4)cc3)[C@@H]2C1`
Completion: 18.7 µM

Prompt: // query: `CO/N=C\CC(=O)Nc1ccc(Cl)cc1Cl`
Completion: 16.1 µM

Prompt: Next up: `CN(C)C(=O)C(CCN1CCC(O)(c2ccc(Cl)cc2)CC1)(c1ccccc1)c1ccccc1`
Completion: 10.1 µM

Prompt: And the next one, O=C(NCc1ccccc1)C1Cc2c(-c3ccc(Cl)cc3)ccnc2O1 (stereo unspecified) ?
Completion: 9.8 µM

Prompt: Now the same for `O=[N+]([O-])c1ccc(N=Nc2c(Cl)cc(O)cc2Cl)cc1`
Completion: 4.24 µM

Prompt: Next compound up: `O=[N+]([O-])c1ccc(Sc2cccc[n+]2[O-])c2nonc12`
Completion: 5.72 µM

Prompt: Ok, now `CC(=O)Oc1c(C)cc(Cl)cc1C(=O)Nc1ccc([N+](=O)[O-])cc1Cl`
Completion: 0.712 µM

Prompt: Same question, `Cc1ccc(/C=N/NC(=O)c2c(-c3ccccc3)noc2C)c(O)c1` this time
Completion: 18.4 µM

Prompt: Also `Cc1cc(N/N=C/c2ccccc2O)c2ccccc2n1` ?
Completion: 19.7 µM
